Reference source: patent US11860174B2

- system under test: human CB2 receptors (Homo sapiens)
- Construct: expressed in transfected cells; host or cells: CHO cells (membrane fraction)
- Sequence (P34972 whole entry): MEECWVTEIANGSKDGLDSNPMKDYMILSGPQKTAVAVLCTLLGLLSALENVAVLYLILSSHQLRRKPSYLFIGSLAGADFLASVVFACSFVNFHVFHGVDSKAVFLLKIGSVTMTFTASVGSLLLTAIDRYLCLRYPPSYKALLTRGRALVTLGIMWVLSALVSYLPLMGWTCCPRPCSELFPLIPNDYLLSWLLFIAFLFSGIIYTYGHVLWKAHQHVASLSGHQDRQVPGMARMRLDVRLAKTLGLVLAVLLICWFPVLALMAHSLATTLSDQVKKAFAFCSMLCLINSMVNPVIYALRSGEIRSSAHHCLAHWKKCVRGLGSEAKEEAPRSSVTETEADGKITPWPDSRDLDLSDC
- procedure text: CHO-CB2 radioligand displacement binding (filtration)
- experimental conditions: labelled cannabinoid [3H]-CP55940; membranes of CB2 cells; Cheng & Prusoff; n = 3 or 4
The entries below come with measured pKi values attached.
// pKi here means minus log10 of the molar concentration (mol/L)

Below, each entry is followed by its recorded pKi result.
# query smiles, pKi
measured = [
    ("C=C1CC[C@@H]2[C@@H](C1)c1c(OC)cc(C(C)(C)CCCCCC)cc1OC2(C)C", 7.93),
    ("COc1ccc(C(=O)c2c(C)n(CCN3CCOCC3)c3cc(I)ccc23)cc1", 7.51),
]

Alright, here's another molecule for you.
q: Dear colleague, I am looking for the recorded pKi of the following molecule: `CCCCCCC(C)(C)c1cc(OC)c2c(c1)OC(C)(C)[C@@H]1CC=C(C)C[C@@H]21`
a: 8.19
